B1: TPR t1 (parent)
chain: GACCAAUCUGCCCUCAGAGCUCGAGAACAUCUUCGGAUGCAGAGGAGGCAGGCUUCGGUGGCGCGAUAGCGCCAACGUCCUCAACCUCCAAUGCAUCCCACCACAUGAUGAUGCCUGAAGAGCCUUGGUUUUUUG

Variants of: B1
Protocol: polymerase ribozyme fitness, log enrichment relative to wild type (log ratio); higher = more active; in vitro selection for triplet polymerase activity
Assay endpoint: polymerase ribozyme fitness (log ratio)

Known polymerase ribozyme fitness (log ratio) results, listed for orientation:
{"columns": ["Changes", "Recorded measurement"],
 "data": [
  ["G23A G77C G120C", -6.71],
  ["G48U C72U C85A U92C G93C C101U", -3.44]
]}

## Task I would be grateful if you could share the reported polymerase ribozyme fitness (log ratio) for C99U A119G .
## Result -1.65

## Task I'd like to know its polymerase ribozyme fitness (log ratio). The variant in question is U59G G61U A118U
## Result -0.0772

## Task Dear colleague, I am looking for the recorded polymerase ribozyme fitness (log ratio) of the following variant: A37C C76G G117C A121C
## Result -5.98

This collection of values is drawn from the RNAGym collection of RNA variant scans (doi:10.1073/pnas.2313332121).
